Test: ATG_CMV_CIS: Attagene CIS-FACTORIAL HepG2 Assay for human CMV (Internal Marker) (AID 2282928);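 note: endpoint acts as a background internal control marker rather than a target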
Details: HepG2 CMV promoter reporter, transcription factor profiling; actives raise or lower the signal
Protocol: ATG_CIS is a cell-based, multiplexed-readout assay that uses HepG2, a human liver cell line, with measurements taken at 24 hours after chemical dosing in a 24-well plate.ATG_CMV_CIS is one of 52 assay component(s) measured or calculated from the ATG_CIS assay. […] This assay endpoint, ATG_CMV_CIS, was analyzed with bidirectional fitting relative to DMSO as the negative control and baseline of activity. […]
Calls of active or inactive are those of the source. Rule for the calls: active = hit-call score of the fitted dose curve at least 0.9, where 1 is the maximum; inactive = score below 0.9.
ASSAY ENDPOINT: AC50

Example entries begin here.
COc1c(Cl)c(Cl)c(Cl)c(Cl)c1Cl | 27.7 µM (active)
C[C@H]1C[C@@H]2[C@H]([C@@H](O)C[C@@]3(C)[C@H]2CC[C@]3(O)C(=O)CO)[C@@]2(C)C=CC(=O)C=C12 | inactive
O=C(COc1ccc(Cl)cc1)N1CCN(Cc2ccc3c(c2)OCO3)CC1 | 24.9 µM (active)
CCCc1ccccc1O | inactive
Cc1cccc(C)c1[N+](=O)[O-] | inactive

Quick request: AC50 for each listed item, please.
1. OCCOCCOCCOCCO
2. O=C1C(c2[nH]c3ccc(S(=O)(=O)O)cc3c2O)=Nc2ccc(S(=O)(=O)O)cc21

1. inactive
2. inactive

====

assay: ATG_M_19_CIS: Attagene CIS-FACTORIAL HepG2 Assay for M19 Transcription Factor (Internal Marker) (AID 2282939); settings: HepG2 Attagene CIS-FACTORIAL M19 internal marker reporter; actives raise or lower the signal
The source made the active and inactive calls. How the source made its calls: active means hit-call score of the fitted dose curve at least 0.9, where 1 is the maximum; inactive means score below 0.9.
Respond with a class label; see YES (active), NO (inactive)

Nc1cc([N+](=O)[O-])ccc1Cl | NO
COc1cc2ncnc(Nc3cccc(Cl)c3)c2cc1OC | NO
CCCCCCCCCC=O | NO

Field: outcome | Entry: NCCOCCO NO

Field: outcome | Entry: N#Cc1ccccc1 NO

Field: outcome | Entry: CC(=O)OCCC(C)CC(C)(C)C (stereo unspecified) NO

====

read-out: Macrophage colony-stimulating factor (MCSF), CSF1 (gene 1435); test: BSK_LPS_MCSF: BioMAP Diversity Plus: LPS Assay for Macrophage colony-stimulating factor (MCSF) Biomarker Activity (AID 2283083); details: primary human HUVEC with PBMC; actives raise or lower the signal
Active and inactive are the calls of the source. How the source made its calls: active means hit-call score of the fitted dose curve at least 0.9, where 1 is the maximum; inactive means score below 0.9.
Respond with a class label; see class 1 (active), class 0 (inactive)

CC1COc2ccccc2N1C(=O)C(Cl)Cl (centres undefined) | class 1
O=C(O)c1cn(-c2ccc(F)cc2)c2cc(N3CCNCC3)c(F)cc2c1=O | class 0
COc1cc(C=O)ccc1OC(=O)C(C)C | class 0
O=C=NC1CCC(CC2CCC(N=C=O)CC2)CC1 (centres undefined) | class 0
Cc1ccc(O)c(C(C)(C)C)c1 | class 1

Field: outcome | Entry: CNC[C@H](O)c1cccc(O)c1 class 0

Field: outcome | Entry: Nc1cc([N+](=O)[O-])ccc1O class 0

====

assay: ATG_CMV_CIS: Attagene CIS-FACTORIAL HepG2 Assay for human CMV (Internal Marker) (AID 2282928); details: HepG2 CMV promoter reporter, transcription factor profiling; actives raise or lower the signal;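 note: endpoint acts as a background internal control marker rather than a target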
Active and inactive are the calls of the source. The calls were made as follows: active = hit-call score of the fitted dose curve at least 0.9, where 1 is the maximum; inactive = score below 0.9.
Respond with a class label; see active, inactive

CC(CC(C)(C)C)CC(C)(C)CC(C)(C)C (configuration not stated) | inactive
CC(C)(CO)[N+](=O)[O-] | inactive
CC(C)=CCC[C@](C)(O)[C@@H]1CC=C(C)CC1 | active
CCCC[n+]1ccccc1 | inactive
CCCC(=O)OCCC(C)CCC=C(C)C (configuration not stated) | inactive

Field: outcome | Entry: CC(C)=CCC/C(C)=C/COC=O inactive

Field: outcome | Entry: CC[Si](OC(C)=O)(OC(C)=O)OC(C)=O inactive

Field: outcome | Entry: Nc1cc(Cl)c(O)c(Cl)c1 active

Field: outcome | Entry: CCCCCCCCC inactive

====

biological target: X-box-binding protein 1 (Homo sapiens) (UniProt P17861); test: ATG_Xbp1_CIS: Attagene CIS-FACTORIAL HepG2 Assay for human X-box Binding Protein 1 (XBP1) (AID 2282972); settings: HepG2 XBP1 cis-element reporter, Attagene multiplex; actives raise or lower the signal
Sequence (P17861 whole entry, looked up): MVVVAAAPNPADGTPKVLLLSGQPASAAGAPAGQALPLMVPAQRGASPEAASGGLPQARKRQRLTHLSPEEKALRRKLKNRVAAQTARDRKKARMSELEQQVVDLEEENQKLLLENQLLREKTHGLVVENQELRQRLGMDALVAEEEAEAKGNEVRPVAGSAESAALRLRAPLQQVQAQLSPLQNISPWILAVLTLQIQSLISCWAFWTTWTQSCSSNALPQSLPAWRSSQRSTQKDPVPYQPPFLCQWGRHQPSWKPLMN
Calls of active or inactive are those of the source. The calls were made as follows: active = hit-call score of the fitted dose curve at least 0.9, where 1 is the maximum; inactive = score below 0.9.
Respond with a class label; see active, inactive

Reference set (4 entries):
O=C(Nc1ccccc1)c1cc([N+](=O)[O-])ccc1Cl | active
CC1(C)[C@H](C(=O)OCc2cccc(Oc3ccccc3)c2)[C@@H]1C=C(Cl)Cl | inactive
CC(C)C(C)(C)C(C)(C)C(C)(C)S | inactive
CC1=CC(=O)NS(=O)(=O)O1 | inactive

Field: outcome | Entry: O=Cc1ccc(F)cc1 inactive

Field: outcome | Entry: S=C(S)NCCNC(=S)S inactive

Field: outcome | Entry: CCCCCCOC(=O)CCCCC inactive

Field: outcome | Entry: Clc1ccc2c(c1)C(N1CCNCC1)=Nc1ccccc1O2 active

Field: outcome | Entry: C#C[C@]1(O)CC[C@H]2[C@@H]3CCC4=Cc5oncc5C[C@]4(C)[C@H]3CC[C@@]21C active

Field: outcome | Entry: CN1Cc2c(N)cccc2C(c2ccccc2)C1 (stereo not drawn) inactive

Field: outcome | Entry: CCc1c(C)cc(N)c(CC)c1N inactive

Field: outcome | Entry: CCCCCCC#CC(=O)OC inactive

====

molecular target: Hypoxia-inducible factor 1-alpha (Homo sapiens) (UniProt Q16665); assay: ATG_HIF1a_CIS: Attagene CIS-FACTORIAL HepG2 Assay for human Hypoxia Inducible Factor 1 (HIF1A) (AID 2282951); details: HepG2 Attagene cis-factorial HIF1a reporter transcription; actives raise or lower the signal
Sequence (Q16665 whole entry, looked up): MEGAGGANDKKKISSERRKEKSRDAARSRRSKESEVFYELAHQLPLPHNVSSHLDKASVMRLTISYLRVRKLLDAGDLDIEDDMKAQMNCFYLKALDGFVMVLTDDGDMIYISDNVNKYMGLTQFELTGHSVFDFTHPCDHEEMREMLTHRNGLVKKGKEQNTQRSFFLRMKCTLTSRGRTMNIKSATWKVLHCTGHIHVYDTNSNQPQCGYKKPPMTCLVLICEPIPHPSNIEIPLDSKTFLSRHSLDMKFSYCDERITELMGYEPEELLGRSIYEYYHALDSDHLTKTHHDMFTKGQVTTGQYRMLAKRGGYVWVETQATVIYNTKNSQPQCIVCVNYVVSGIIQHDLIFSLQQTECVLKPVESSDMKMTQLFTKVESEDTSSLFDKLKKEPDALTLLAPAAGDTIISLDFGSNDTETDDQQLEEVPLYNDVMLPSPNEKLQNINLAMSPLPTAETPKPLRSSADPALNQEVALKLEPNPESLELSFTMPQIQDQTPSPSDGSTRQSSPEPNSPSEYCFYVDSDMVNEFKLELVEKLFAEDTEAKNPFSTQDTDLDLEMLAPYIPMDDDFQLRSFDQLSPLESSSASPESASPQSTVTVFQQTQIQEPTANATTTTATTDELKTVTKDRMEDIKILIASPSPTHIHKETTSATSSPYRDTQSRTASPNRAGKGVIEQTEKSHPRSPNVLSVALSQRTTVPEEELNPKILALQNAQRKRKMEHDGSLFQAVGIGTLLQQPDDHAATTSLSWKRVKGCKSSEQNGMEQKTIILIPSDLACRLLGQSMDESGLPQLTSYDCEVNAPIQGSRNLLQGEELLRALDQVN
The source made the active and inactive calls. The calls were made as follows: active = hit-call score of the fitted dose curve at least 0.9, where 1 is the maximum; inactive = score below 0.9.
Respond with a class label; see T for active, F for inactive

Reference set (2 entries):
CCc1ccc(C=O)cc1 | F
CNC[C@H](O)c1cccc(O)c1 | F

Field: outcome | Entry: CC(C)(C)C(=O)c1ccccc1 F

Field: outcome | Entry: C[C@H]1C[C@H]2[C@@H]3CCC4=CC(=O)C=C[C@]4(C)[C@@]3(F)[C@@H](O)C[C@]2(C)[C@@]1(O)C(=O)COP(=O)(O)O F

====

read-out: Matrix Metallopeptidase 1 (MMP1), MMP1 (gene 4312); experiment: BSK_hDFCGF_MMP1: BioMAP Diversity Plus: hDFCGF Assay for Matrix Metallopeptidase 1 (MMP1) Biomarker Activity (AID 2283064); settings: primary human foreskin fibroblasts; actives raise or lower the signal
Calls of active or inactive are those of the source. Rule for the calls: active = hit-call score of the fitted dose curve at least 0.9, where 1 is the maximum; inactive = score below 0.9.
Respond with a class label; see true (1) for active, false (0) for inactive

Cc1ccc(O)c(C(C)(C)C)c1 | true (1)
c1ccc2sc(SN(C3CCCCC3)C3CCCCC3)nc2c1 | false (0)
C=C[Si](OCC)(OCC)OCC | false (0)
CCCCC(CC)COC(=O)/C=C\C(=O)OCC(CC)CCCC (configuration not stated) | false (0)
C=C(C)C(=O)O[C@H]1C[C@@H]2CC[C@@]1(C)C2(C)C | true (1)

Field: outcome | Entry: CC(C)Oc1ccccc1O false (0)

Field: outcome | Entry: NCCNCCN false (0)

====

molecular target: Peroxisome proliferator-activated receptor gamma (Homo sapiens); assay: ATG_PPARg_TRANS: Attagene TRANS-FACTORIAL HepG2 Assay for human Peroxisome Proliferator-activated Receptor-gamma (PPARg) (AID 2283007)
Records with an inconclusive call do not appear. The source made the active and inactive calls. How the source made its calls: active means hit-call score of the fitted dose curve at least 0.9, where 1 is the maximum; inconclusive means response in the unintended direction; inactive means score below 0.9.
Respond with a class label; see active, inactive

CC(CCO)CCCC(C)(C)O (configuration not stated) | inactive
CC(C)(Oc1ccc(CCNC(=O)c2ccc(Cl)cc2)cc1)C(=O)O | active
C=C(C)C(=O)OCc1ccccc1 | inactive
Nc1cc([N+](=O)[O-])ccc1O | inactive
COc1cc2ncnc(Nc3cccc(Cl)c3)c2cc1OC | inactive
O=C1CCCCCCCCCCCCCCO1 | active

Field: outcome | Entry: O=C(O)CN(CCN(CC(=O)O)CC(=O)O)CCN(CC(=O)O)CC(=O)O inactive

Field: outcome | Entry: C=C(C)[C@@H]1CCC2=CC(=O)C[C@@H](C)[C@]2(C)C1 inactive

Field: outcome | Entry: CCCCCCCCCCCCSC inactive

Field: outcome | Entry: CN(C)CCCN inactive

Field: outcome | Entry: CCCC(=O)c1cc(O)c(O)cc1O inactive

Field: outcome | Entry: COc1cccc(OC)c1 inactive

Field: outcome | Entry: CCCCCCCCCCC(CO)CCCCCCCC (configuration not stated) inactive

Field: outcome | Entry: CC(=O)OCC=Cc1ccccc1 active

Field: outcome | Entry: CCCCCNCCCCC inactive

====

read-out: Urokinase-type plasminogen activator receptor (uPAR), PLAUR (gene 5329); experiment: BSK_CASM3C_uPAR: BioMAP Diversity Plus: CASM3C Assay for Urokinase-type plasminogen activator receptor (uPAR) Biomarker Activity (AID 2283054); conditions: primary human coronary artery smooth muscle cells; actives raise or lower the signal;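 note: cell-surface uPAR protein level quantified by ELISA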
Activity calls are given as the source filed them. How the source made its calls: active means hit-call score of the fitted dose curve at least 0.9, where 1 is the maximum; inactive means score below 0.9.
Respond with a class label; see 1 = active, -1 = inactive

OC[C@H]1O[C@H](O[C@]2(CCl)O[C@H](CCl)[C@@H](O)[C@@H]2O)[C@H](O)[C@@H](O)[C@H]1Cl | -1

Field: outcome | Entry: N#Cc1ccc(CC(=NNC(=O)Nc2ccc(OC(F)(F)F)cc2)c2cccc(C(F)(F)F)c2)cc1 -1

Field: outcome | Entry: c1ccc2sc(SN(C3CCCCC3)C3CCCCC3)nc2c1 -1

Field: outcome | Entry: CC(=O)[C@H]1CC[C@H]2[C@@H]3CC=C4C[C@@H](O)CC[C@]4(C)[C@H]3CC[C@]12C -1
